Origin of measurements: patent US20260028338A1

# tgt: His-tagged BRD4 BD2 (333-460) (Homo sapiens)
# Construct: The same assay was developed for His-tagged BRD4 BD2 (333-460) and biotinylated histone H4K5/8/12/16(Ac) peptide
# assay text: AlphaLISA competition assay, BRD4 BD2
# protocol conditions: BRD4-BD2, AlphaLISA competition with biotinylated histone H4K5/8/12/16(Ac) peptide, 20 nM
Recorded IC50, one value per entry.

Worked cases, IC50 given:
>  <molecule>
CCS(=O)(=O)Nc1ccc(Oc2cccc(OCCCN3CCN(CC4CCN(c5ncc(Cl)c(Nc6ccc7c(c6)cc(OCC(=O)NC)c(=O)n7C)n5)CC4)CC3)c2)c(-c2cn(C)c(=O)c3[nH]ccc23)c1 [Compound I-6]

>  <tgt>
His-tagged BRD4 BD2 (333-460) (Homo sapiens)

>  <assay result>
5 to 50 nM

$$$$
>  <molecule>
CNC(=O)COc1cc2cc(Nc3nc(N4CCN(CCN(C)C5CC(Oc6ccc(C(C)(C)O)cc6-c6cn(C)c(=O)c7[nH]ccc67)C5)CC4)ncc3Cl)ccc2n(C)c1=O (centres unmarked) [Compound I-18]

>  <tgt>
His-tagged BRD4 BD2 (333-460) (Homo sapiens)

>  <assay result>
< 5 nM

$$$$

Query :: Output IC50 of CNC(=O)COc1cc2cc(Nc3nc(N4CCC(CN5CCN(Cc6cccc(Oc7ccc(C(C)(C)O)cc7-c7cn(C)c(=O)c8[nH]ccc78)c6)CC5)CC4)ncc3Cl)ccc2n(C)c1=O [Compound I-39]
Result :: < 5 nM

Query :: Output IC50 of CCS(=O)(=O)Nc1ccc(Oc2ccc(OCCCCN3CCN(CC4CCN(c5ncc(Cl)c(Nc6ccc7c(c6)cc(OCC(=O)NC)c(=O)n7C)n5)CC4)CC3)cc2)c(-c2cn(C)c(=O)c3[nH]ccc23)c1 [Compound I-10]
Result :: < 5 nM

Query :: Output IC50 of CNC(=O)COc1cc2cc(Nc3nc(N4CCCC5(CC(Oc6ccc(C7=N[C@@H](Cc8ncco8)c8nnc(C)n8-c8sc(C)c(C)c87)cc6)C5)C4)ncc3Cl)ccc2n(C)c1=O (some centres unmarked) [Compound I-27]
Result :: < 5 nM

###

# tgt: His-tagged BRD4 BD1 (46-168) (Homo sapiens)
# Construct: His-tagged BRD4 BD1 (46-168) and biotinylated histone H4K5/8/12/16(Ac) peptide
# assay text: AlphaLISA competition assay, BRD4 BD1
# protocol conditions: BRD4-BD1, AlphaLISA competition with biotinylated histone H4K5/8/12/16(Ac) peptide, 10 nM
recorded metric: IC50

Worked cases, IC50 given:
>  <compound>
CNC(=O)COc1cc2cc(Nc3nc(N4CCC(CN5CCCC6(C5)CN(C[C@H]5C[C@@H](Oc7ccc(C(C)(C)O)cc7-c7cn(C)c(=O)c8[nH]ccc78)C5)C6)CC4)ncc3Cl)ccc2n(C)c1=O

>  <IC50>
< 5 nM

$$$$
>  <compound>
CNC(=O)COc1cc2cc(Nc3nc(N4CCN(CCN5CCN(Cc6cccc(Oc7ccc(C(C)(C)O)cc7-c7cn(C)c(=O)c8[nH]ccc78)c6)CC5)CC4)ncc3Cl)ccc2n(C)c1=O

>  <IC50>
< 5 nM

$$$$
>  <compound>
CNC(=O)COc1cc2cc(Nc3nc(N4CCC(CCN5CCN(CCN(C)[C@H]6C[C@H](Oc7ccc(C(C)(C)O)cc7-c7cn(C)c(=O)c8[nH]ccc78)C6)CC5)CC4)ncc3Cl)ccc2n(C)c1=O

>  <IC50>
< 5 nM

$$$$
>  <compound>
CNC(=O)COc1cc2cc(Nc3nc(N4CCC(N5CCN(Cc6ccc(Oc7ccc(C(C)(C)O)cc7-c7cn(C)c(=O)c8[nH]ccc78)cc6)CC5)CC4)ncc3Cl)ccc2n(C)c1=O

>  <IC50>
< 5 nM

$$$$
>  <compound>
CCS(=O)(=O)Nc1ccc(Oc2ccc(OCCCCN3CCN(CC4CCN(c5ncc(Cl)c(Nc6ccc7c(c6)cc(OCC(=O)NC)c(=O)n7C)n5)CC4)CC3)cc2)c(-c2cn(C)c(=O)c3[nH]ccc23)c1

>  <IC50>
5 to 50 nM

$$$$

Query :: Output IC50 of CNC(=O)COc1cc2cc(Nc3nc(N4CCCC5(CC(Oc6ccc(C7=N[C@@H](Cc8ncco8)c8nnc(C)n8-c8sc(C)c(C)c87)cc6)C5)C4)ncc3Cl)ccc2n(C)c1=O (stereo partly drawn)
Result :: 5 to 50 nM

Query :: Output IC50 of "CCS(=O)(=O)Nc1ccc(Oc2cccc(OCCN3CCN(CCC4CCN(c5ncc(Cl)c(Nc6ccc7c(c6)cc(OCC(=O)NC)c(=O)n7C)n5)CC4)CC3)c2)c(-c2cn(C)c(=O)c3[nH]ccc23)c1"
Result :: 5 to 50 nM

Query :: Output IC50 of "CNC(=O)COc1cc2cc(Nc3nc(N4CCC(CCCN5CCN(CCN(C)[C@H]6C[C@H](Oc7ccc(C(C)(C)O)cc7-c7cn(C)c(=O)c8[nH]ccc78)C6)CC5)CC4)ncc3Cl)ccc2n(C)c1=O"
Result :: 5 to 50 nM

Query :: Output IC50 of "CCS(=O)(=O)Nc1ccc(Oc2ccc(OCCN3CCN(CCC4CCN(c5ncc(Cl)c(Nc6ccc7c(c6)cc(OCC(=O)NC)c(=O)n7C)n5)CC4)CC3)cc2)c(-c2cn(C)c(=O)c3[nH]ccc23)c1"
Result :: 5 to 50 nM

###

# tgt: His-tagged BRD4 BD1 (46-168) (Homo sapiens, UniProt O60885)
# Construct: His-tagged BRD4 BD1 (46-168) and biotinylated histone H4K5/8/12/16(Ac) peptide
# assay text: AlphaLISA competition assay, BRD4 BD1
# protocol conditions: BRD4-BD1, AlphaLISA competition with biotinylated histone H4K5/8/12/16(Ac) peptide, 10 nM
pIC50: −log10 of the molar value.
recorded metric: pIC50

Worked cases, pIC50 given:
>  <test smiles>
CCS(=O)(=O)Nc1ccc(Oc2cccc(OCCN3CCN(CCN4CCN(c5ncc(Cl)c(Nc6ccc7c(c6)cc(OCC(=O)NC)c(=O)n7C)n5)CC4)CC3)c2)c(-c2cn(C)c(=O)c3[nH]ccc23)c1

>  <tgt>
His-tagged BRD4 BD1 (46-168) (Homo sapiens, UniProt O60885)

>  <pIC50>
> 8.30

$$$$
>  <test smiles>
CNC(=O)COc1cc2cc(Nc3nc(N4CCC(CN5CC(Oc6ccc(C7=N[C@@H](Cc8ncco8)c8nnc(C)n8-c8sc(C)c(C)c87)cc6)C5)CC4)ncc3Cl)ccc2n(C)c1=O

>  <tgt>
His-tagged BRD4 BD1 (46-168) (Homo sapiens, UniProt O60885)

>  <pIC50>
> 8.30

$$$$
>  <test smiles>
CNC(=O)COc1cc2cc(Nc3nc(N4CCC(CCN5CCN(CCOc6cccc(Oc7ccc(C(C)(C)O)cc7-c7cn(C)c(=O)c8[nH]ccc78)c6)CC5)CC4)ncc3Cl)ccc2n(C)c1=O

>  <tgt>
His-tagged BRD4 BD1 (46-168) (Homo sapiens, UniProt O60885)

>  <pIC50>
6.30 to 7.30

$$$$
>  <test smiles>
CNC(=O)COc1cc2cc(Nc3nc(N4CCC5(CC4)CC(Oc4ccc(C6=N[C@@H](Cc7ncco7)c7nnc(C)n7-c7sc(C)c(C)c76)cc4)C5)ncc3Cl)ccc2n(C)c1=O

>  <tgt>
His-tagged BRD4 BD1 (46-168) (Homo sapiens, UniProt O60885)

>  <pIC50>
7.30 to 8.30

$$$$

Query :: Output pIC50 of "CCS(=O)(=O)Nc1ccc(Oc2cccc(OCCN3CCN(CCCC4CCN(c5ncc(Cl)c(Nc6ccc7c(c6)cc(OCC(=O)NC)c(=O)n7C)n5)CC4)CC3)c2)c(-c2cn(C)c(=O)c3[nH]ccc23)c1"
Result :: 7.30 to 8.30

###

Recorded IC50, one value per entry.
# tgt: His-tagged BRD4 BD2 (333-460) (Homo sapiens)
# Construct: The same assay was developed for His-tagged BRD4 BD2 (333-460) and biotinylated histone H4K5/8/12/16(Ac) peptide
# assay text: AlphaLISA competition assay, BRD4 BD2
# protocol conditions: BRD4-BD2, AlphaLISA competition with biotinylated histone H4K5/8/12/16(Ac) peptide, 20 nM

>  <test smiles>
CNC(=O)COc1cc2cc(Nc3nc(N4CCC(CCN5CCN(CCN(C)[C@H]6C[C@H](Oc7ccc(C(C)(C)O)cc7-c7cn(C)c(=O)c8[nH]ccc78)C6)CC5)CC4)ncc3Cl)ccc2n(C)c1=O

>  <IC50>
< 5 nM

$$$$

Query :: Give reported IC50 for "CCS(=O)(=O)Nc1ccc(Oc2ccc(OCCN3CCN(CCC4CCN(c5ncc(Cl)c(Nc6ccc7c(c6)cc(OCC(=O)NC)c(=O)n7C)n5)CC4)CC3)cc2)c(-c2cn(C)c(=O)c3[nH]ccc23)c1" (His-tagged BRD4 BD2 (333-460) (Homo sapiens))
Result :: < 5 nM

Query :: Give reported IC50 for "CCS(=O)(=O)Nc1ccc(Oc2cccc(OCCN3CCN(CC4CCN(c5ncc(Cl)c(Nc6ccc7c(c6)cc(OCC(=O)NC)c(=O)n7C)n5)CC4)CC3)c2)c(-c2cn(C)c(=O)c3[nH]ccc23)c1" (His-tagged BRD4 BD2 (333-460) (Homo sapiens))
Result :: 5 to 50 nM

Query :: Give reported IC50 for "CNC(=O)COc1cc2cc(Nc3nc(N4CCC(CN5CCN(CCN(C)[C@H]6C[C@H](Oc7ccc(C(C)(C)O)cc7-c7cn(C)c(=O)c8[nH]ccc78)C6)CC5)CC4)ncc3Cl)ccc2n(C)c1=O" (His-tagged BRD4 BD2 (333-460) (Homo sapiens))
Result :: < 5 nM
